Biological target: HLA-A*0201 (human)
Test: inhibition of 125I-labelled standard peptide binding to purified HLA-A*0201, gel filtration
Reported property: binding affinity ratio (IC50 of standard peptide / IC50 of test peptide)

I: AVKVMDLPT (modifications not checked) [… (PSA, position 131)]
II: CVSLHLLSNDM (modifications not checked) [… (Kallikrein, position 173)]
Query: // compare: I vs II , metric binding affinity ratio (IC50 of standard peptide / IC50 of test peptide), want the smaller // output: label of the selected item
Result: I
(I: 0.0001, II: 0.0002)
